Below, each entry is listed alongside its reported PBM binding z-score.
System: VDR homodimer (NR concentration 270 nM)
procedureText: PBM binding z-score (relative to random genomic background probes); higher = stronger binding; sequences stand for … in GC…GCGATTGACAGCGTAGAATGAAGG

| recordSequence | PBM binding z-score |
| --- | --- |
| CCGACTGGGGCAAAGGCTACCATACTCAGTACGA | -0.299 |

Which measured PBM binding z-score belongs to CAAACTAGGTCTCAGAGGTCAAAGTCCGTGCGTA , tested on VDR homodimer (NR concentration 270 nM)?
4.57

Which measured PBM binding z-score belongs to ATCTCTAGGTACGACTCAGTTCAGTGAAGAACGC , tested on VDR homodimer (NR concentration 270 nM)?
2.02

* * *

Below, each entry is listed alongside its reported PBM binding z-score.
System: PXR:RXRa (NR concentration 270 nM, RXRa partner concentration 90 nM)
procedureText: PBM binding z-score (relative to random genomic background probes); higher = stronger binding; sequences stand for … in GC…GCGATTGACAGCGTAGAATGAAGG
Simply state the number, no unit and no words.

Field: example entries. Status: answers known.
| recordSequence | targetSystem | PBM binding z-score |
| --- | --- | --- |
| ACTTTTAGTTGACTTAGGGCAACCGATACGACGC | PXR:RXRa (NR concentration 270 nM, RXRa partner concentration 90 nM) | 0.436 |
| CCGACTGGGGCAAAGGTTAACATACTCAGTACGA | PXR:RXRa (NR concentration 270 nM, RXRa partner concentration 90 nM) | 3.12 |
| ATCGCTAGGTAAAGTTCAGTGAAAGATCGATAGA | PXR:RXRa (NR concentration 270 nM, RXRa partner concentration 90 nM) | 1.42 |
| TCAGACAGGTTAAGGTAACTCAGGTACGCAGTCG | PXR:RXRa (NR concentration 270 nM, RXRa partner concentration 90 nM) | 1.1 |
| ATCGAAAGGTCGAAGGTGAGTAGACCCACCCGAA | PXR:RXRa (NR concentration 270 nM, RXRa partner concentration 90 nM) | 2.69 |

Consider the record given below.
Which measured PBM binding z-score belongs to TCGATTAGGTTAGGGGCATTCAGAATGGCGTCGA , tested on PXR:RXRa (NR concentration 270 nM, RXRa partner concentration 90 nM)?
0.603

* * *

Test system: PPARg DBDmut IVT, anti-PPARg (DBD mutation: PPARg1 K132A/R137A, NR concentration 270 nM)
procedureText: PBM binding z-score (relative to random genomic background probes); higher = stronger binding; sequences stand for … in GC…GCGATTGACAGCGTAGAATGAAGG
Categorize each record by its PBM binding z-score using bin 1: < -0.4; bin 2: ≥ -0.4 and < 0.6; bin 3: ≥ 0.6

Example entries and their recorded answers appear below.
| recordSequence | categoryLabel |
| --- | --- |
| GATACAGGGCCAGCTAGAGGCCAGAGTATGGAAA | bin 1 |
| CGTACTGGGCCAAGGTCATTGATCAGTCAAAGCA | bin 2 |
| GCTATTAGTTGAAAGAGCAACCGAATGATTCTCG | bin 2 |
| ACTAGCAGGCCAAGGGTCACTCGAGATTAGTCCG | bin 2 |

Which category does the recorded PBM binding z-score put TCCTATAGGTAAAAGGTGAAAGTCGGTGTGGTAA in?
bin 2

Which category does the recorded PBM binding z-score put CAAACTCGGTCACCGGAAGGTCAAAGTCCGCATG in?
bin 2

Data origin: the supplement of paper PMC6555819
